assayed_target: CYP3A4 (Homo sapiens, UniProt P08684)
Sequence (P08684 whole entry): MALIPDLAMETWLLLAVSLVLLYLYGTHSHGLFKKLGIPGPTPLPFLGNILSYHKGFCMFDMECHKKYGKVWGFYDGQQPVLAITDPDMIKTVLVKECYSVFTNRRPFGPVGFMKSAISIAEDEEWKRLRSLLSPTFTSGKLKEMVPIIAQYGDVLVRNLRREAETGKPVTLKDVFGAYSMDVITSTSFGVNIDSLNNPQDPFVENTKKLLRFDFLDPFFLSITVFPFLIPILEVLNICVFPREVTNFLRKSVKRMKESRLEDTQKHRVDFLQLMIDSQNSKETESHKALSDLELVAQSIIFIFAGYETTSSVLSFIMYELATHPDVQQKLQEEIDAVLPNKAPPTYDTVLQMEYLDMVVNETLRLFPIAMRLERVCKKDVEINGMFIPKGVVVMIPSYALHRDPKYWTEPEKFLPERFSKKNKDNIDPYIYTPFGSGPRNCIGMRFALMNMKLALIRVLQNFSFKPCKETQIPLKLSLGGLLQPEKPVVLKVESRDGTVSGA
assay_overview: clinical
experimental_context: plasma, oral, tmax of analyte, median (range), A1+S = simvastatin 10 mg SD plus GSK2647544 80 mg b.i.d. for 7 days
measure_name: Tmax (h)
API: value field is a number in h; no unit string.

Returns the measured Tmax for the input compound. Input: `CCC(C)(C)C(=O)O[C@H]1C[C@@H](C)C=C2C=C[C@H](C)[C@H](CC[C@@H](O)C[C@@H](O)CC(=O)O)[C@H]21`
5.92

====

assayed_target: CYP3A4 (Homo sapiens, UniProt P08684)
assay_overview: clinical
experimental_context: plasma, oral, Cmax of analyte, geometric mean (CVb%), A1+S = simvastatin 10 mg SD plus GSK2647544 80 mg b.i.d. for 7 days
measure_name: Cmax
Write the numeric value and follow it with the unit.

Returns the measured Cmax for the input compound. Input: `CCC(C)(C)C(=O)O[C@H]1C[C@@H](C)C=C2C=C[C@H](C)[C@H](CC[C@@H](O)C[C@@H](O)CC(=O)O)[C@H]21`
1.3 ng/mL

====

assayed_target: CYP3A4 (Homo sapiens)
assay_overview: clinical
experimental_context: plasma, oral, 10 mg, AUC(0-t) of analyte, geometric mean (CVb%), S = simvastatin 10 mg SD alone
measure_name: AUC(0-t) (ng·h/mL)
API: value field is a number in ng·h/mL; no unit string.

Returns the measured AUC(0-t) for the input compound. Input: `CCC(C)(C)C(=O)O[C@H]1C[C@@H](C)C=C2C=C[C@H](C)[C@H](CC[C@@H](O)C[C@@H](O)CC(=O)O)[C@H]21`
2.49

====

assayed_target: CYP3A4 (Homo sapiens, UniProt P08684)
assay_overview: clinical
experimental_context: plasma, oral, AUC(0-t) of analyte, geometric mean (CVb%), A1+S = simvastatin 10 mg SD plus GSK2647544 80 mg b.i.d. for 7 days
measure_name: AUC(0-t) (ng·h/mL)
API: value field is a number in ng·h/mL; no unit string.

Returns the measured AUC(0-t) for the input molecule. Input: CCC(C)(C)C(=O)O[C@H]1C[C@@H](C)C=C2C=C[C@H](C)[C@H](CC[C@@H](O)C[C@@H](O)CC(=O)O)[C@H]21 [Simvastatin acid, simvastatin acid]
7.93

====

assayed_target: CYP3A4 (Homo sapiens)
assay_overview: clinical
experimental_context: plasma, oral, 10 mg, tmax of analyte, median (range), S = simvastatin 10 mg SD alone
measure_name: Tmax (h)
API: value field is a number in h; no unit string.

Returns the measured Tmax for the input molecule. Input: CCC(C)(C)C(=O)O[C@H]1C[C@@H](C)C=C2C=C[C@H](C)[C@H](CC[C@@H](O)C[C@@H](O)CC(=O)O)[C@H]21 [Simvastatin acid, simvastatin acid]
4.04

====

assayed_target: CYP3A4 (Homo sapiens, UniProt P08684)
assay_overview: clinical
experimental_context: plasma, oral, median tmax of analyte, simvastatin alone
measure_name: Tmax (h)
API: value field is a number in h; no unit string.

Returns the measured Tmax for the input molecule. Input: `CCC(C)(C)C(=O)O[C@H]1C[C@@H](C)C=C2C=C[C@H](C)[C@H](CC[C@@H](O)C[C@@H](O)CC(=O)O)[C@H]21`
4

====

assayed_target: CYP3A4 (Homo sapiens)
assay_overview: clinical
experimental_context: plasma, oral, tmax of analyte, median (range), P1+S = simvastatin 10 mg SD plus matched placebo b.i.d. for 7 days
measure_name: Tmax (h)
API: value field is a number in h; no unit string.

Returns the measured Tmax for the input compound. Input: `CCC(C)(C)C(=O)O[C@H]1C[C@@H](C)C=C2C=C[C@H](C)[C@H](CC[C@@H](O)C[C@@H](O)CC(=O)O)[C@H]21`
5.92

====

assayed_target: UniProt:P08684
assay_overview: clinical
experimental_context: plasma, oral, Cmax of analyte, geometric mean (CVb%), P1+S = simvastatin 10 mg SD plus matched placebo b.i.d. for 7 days
measure_name: Cmax
Write the numeric value and follow it with the unit.

Returns the measured Cmax for the input compound. Input: `CCC(C)(C)C(=O)O[C@H]1C[C@@H](C)C=C2C=C[C@H](C)[C@H](CC[C@@H](O)C[C@@H](O)CC(=O)O)[C@H]21`
0.351 ng/mL

# credit: paper PMC5299597
